Sourced from patent US11673876B2

Below, each entry is listed alongside its reported IC50.
target: EGFR (Homo sapiens (Human))
Sequence (P00533 25-1210): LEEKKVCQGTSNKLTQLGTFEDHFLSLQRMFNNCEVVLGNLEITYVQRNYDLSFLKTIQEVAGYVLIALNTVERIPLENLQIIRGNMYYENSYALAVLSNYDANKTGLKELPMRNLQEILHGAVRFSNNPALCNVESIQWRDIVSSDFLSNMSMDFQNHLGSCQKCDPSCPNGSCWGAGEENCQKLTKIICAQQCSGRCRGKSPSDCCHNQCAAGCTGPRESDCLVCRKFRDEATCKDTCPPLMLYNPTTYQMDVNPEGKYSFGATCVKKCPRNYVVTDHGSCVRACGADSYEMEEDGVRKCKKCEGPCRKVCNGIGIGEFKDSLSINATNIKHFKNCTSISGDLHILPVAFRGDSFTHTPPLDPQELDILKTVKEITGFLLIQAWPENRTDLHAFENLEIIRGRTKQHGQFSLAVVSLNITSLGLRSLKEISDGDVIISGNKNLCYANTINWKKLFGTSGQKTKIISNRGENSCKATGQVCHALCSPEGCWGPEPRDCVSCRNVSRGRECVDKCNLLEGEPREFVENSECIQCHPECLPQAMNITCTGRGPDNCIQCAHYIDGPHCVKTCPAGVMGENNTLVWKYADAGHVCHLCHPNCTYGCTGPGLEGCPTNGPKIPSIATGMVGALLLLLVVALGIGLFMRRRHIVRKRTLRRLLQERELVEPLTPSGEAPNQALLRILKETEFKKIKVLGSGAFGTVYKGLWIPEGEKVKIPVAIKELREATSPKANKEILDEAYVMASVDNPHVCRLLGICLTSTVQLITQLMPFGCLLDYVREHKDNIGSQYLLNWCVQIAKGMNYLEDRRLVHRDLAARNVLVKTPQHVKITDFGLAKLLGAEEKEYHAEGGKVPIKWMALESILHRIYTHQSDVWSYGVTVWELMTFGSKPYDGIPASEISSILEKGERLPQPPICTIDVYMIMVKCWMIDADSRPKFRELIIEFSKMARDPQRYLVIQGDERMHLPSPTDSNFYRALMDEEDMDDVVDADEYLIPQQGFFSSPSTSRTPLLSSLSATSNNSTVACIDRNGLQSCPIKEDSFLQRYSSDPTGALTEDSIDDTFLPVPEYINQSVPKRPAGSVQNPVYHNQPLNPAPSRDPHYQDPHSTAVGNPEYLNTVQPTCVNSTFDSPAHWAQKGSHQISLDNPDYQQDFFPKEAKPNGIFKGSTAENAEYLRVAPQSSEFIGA

compound: C[C@@H](Nc1ncnc2ccc(-c3cnc(Cl)c(NS(C)(=O)=O)c3)cc12)c1ccc(F)cc1 [Compound 111R]
IC50: 20 to 200 nM
//
compound: C[C@H](Nc1c(C#N)cnc2ccc(-c3cnc(Cl)c(NS(C)(=O)=O)c3)cc12)c1ccc(F)cc1 [Compound 97S]
IC50: > 200 nM
//
compound: C[C@H](Nc1ncnc2ccc(-c3cnc(Cl)c(NS(C)(=O)=O)c3)cc12)c1ccc(F)cc1 [Compound 111S]
IC50: > 200 nM
//
compound: CC(Nc1c(C#N)cnc2ccc(-c3cncc(-c4n[nH]c(=O)o4)c3)cc12)c1ccccc1 (stereo not shown)
IC50: 2 to 20 nM
//
compound: C[C@H](Nc1c(C#N)cnc2ccc(-c3cnc(Cl)c(NS(C)(=O)=O)c3)cc12)c1ccccc1 [Compound 48S]
IC50: > 200 nM
//
compound: CS(=O)(=O)Nc1cc(-c2ccc3ncnc(Nc4ccc(F)c(Cl)c4)c3c2)cnc1Cl [Comparative Compound 2, reference compound]
IC50: 2 to 20 nM
//
compound: C[C@@H](Nc1ncnc2ccc(-c3cnc(Cl)c(NS(C)(=O)=O)c3)cc12)c1ccccc1
IC50: 2 to 20 nM
